The entries below are paired with their reported TGI.
# Test system: HCT-116 colon
# experimental-protocol: NCI tumour cell line growth inhibition, 48 h

[
  {
    "compound": "Cc1c(C(=O)/C=C/c2ccccc2O)c(=O)n(-c2ccccc2)n1C",
    "TGI": "34.6 µM"
  },
  {
    "compound": "COc1ccc(OC)c(NS(=O)(=O)c2ccc3nc(C)n(NS(=O)(=O)c4cc(OC)ccc4OC)c(=O)c3c2)c1",
    "TGI": "> 100 µM"
  },
  {
    "compound": "NNC(=O)c1nnn(CCc2ccccc2)c1C(=O)NN",
    "TGI": "> 100 µM"
  }
]

## Task Recorded TGI of COC(C)(C)C1(O)CCC(C)CC1=O (stereo not drawn) , please.
## Result > 100 µM

## Task Could you do the same for COC(=O)c1cc(O)c2c(c1C(=O)OC)C[C@H]1[C@@H]3CC=C4C[C@@H](O)CC[C@]4(C)[C@H]3CC[C@]21C , please?
## Result 14.6 µM

## Task Could you do the same for COc1ccc2nc3cc([N+](=O)[O-])ccc3c(NCCCN(C)C)c2c1 , please?
## Result 1.25 µM

## Task Could you do the same for O=C(NCc1cccc2ccccc12)N/N=C\c1ccc(Cl)cc1 , please?
## Result > 100 µM

## Task Could you do the same for COC(=O)N1CC2C3C4CC(C(c5ccccc5)=C4c4ccccc4)C3C21 (stereo not drawn) , please?
## Result 25.7 µM

## Task Could you do the same for COc1cc(Nc2nc3ccccc3cc2C(=O)Nc2ccc(F)c(F)c2)cc(OC)c1OC , please?
## Result 9.08 µM

## Task Could you do the same for Cc1ccc(/C(O)=C/c2nc3ccccc3s/c2=N/CS(=O)(=O)c2ccc(C)cc2)cc1 , please?
## Result > 10 µM

---

# Tested on: A549 NSCLC
# experimental-protocol: NCI tumour cell line growth inhibition, 48 h
reported-endpoint: TGI (µM)
Form entry: value (µM) — number only.

Examples from the recorded data:
[
  {
    "molecule": "C=C1C(=O)O[C@H]2[C@@H](O)[C@H](C)CCC[C@]3(C)O[C@H]3CC[C@@]3(C)O[C@@H]3C[C@@H]12",
    "observed-measurement": 18.3
  },
  {
    "molecule": "CN(C)c1nc(=Nc2cccc(Cl)c2)ss1",
    "observed-measurement": 76.4
  },
  {
    "molecule": "COc1cc2cc(C(=O)N3CC(CCl)c4c3cc(N)c3ccccc43)[nH]c2c(OC)c1OC (stereo not given)",
    "observed-measurement": 1.4
  },
  {
    "molecule": "CC(C)(C)C1CCC2c3c([nH]c4ccccc34)C3C(=O)N(c4ccccc4)C(=O)C3C2C1 (stereo not given)",
    "observed-measurement": 46
  },
  {
    "molecule": "O=C(Nc1ccc(-n2ccc3c(NC(=O)c4ccccc4)ncnc32)cc1)Nc1cccc(Cl)c1Cl",
    "observed-measurement": 2.22
  }
]

## Task Recorded TGI of CC[N+]1(C)CCC(O)(c2ccc(OC)cc2)C(C(=O)c2ccc(OC)cc2)C1 (stereo not given) , please.
## Result 41.3

## Task Could you do the same for O=C1/C(=C\c2ccccn2)c2ccccc2N1c1c(Cl)cccc1Cl , please?
## Result 14.6

## Task Could you do the same for COC(=O)c1cc(O)c2c(c1C(=O)OC)C[C@H]1[C@@H]3CC=C4C[C@@H](O)CC[C@]4(C)[C@H]3CC[C@]21C , please?
## Result 11.7

Reference source for all entries: PubChem BioAssay (NCI)
